- TESTED_SYSTEM: Catechol O-methyltransferase (Homo sapiens) (UniProt P21964)
- Sequence (P21964 whole entry, looked up): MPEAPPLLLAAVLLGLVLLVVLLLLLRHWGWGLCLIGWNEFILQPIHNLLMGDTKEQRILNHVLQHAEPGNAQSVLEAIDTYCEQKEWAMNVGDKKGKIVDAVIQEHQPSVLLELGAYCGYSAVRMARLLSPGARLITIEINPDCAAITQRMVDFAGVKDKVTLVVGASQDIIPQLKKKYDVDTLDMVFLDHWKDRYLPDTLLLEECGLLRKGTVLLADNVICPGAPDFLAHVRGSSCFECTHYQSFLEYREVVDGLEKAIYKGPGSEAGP
- ASSAY_TEXT: Confirmatory Screen for Target Class Profiling of Small Molecule Inhibitors of Methyltransferases (AID 1745852)
- TEST_CONTEXT: MTase-Glo luminescence, SAH detection, recombinant enzyme; measured here: COMT max response; stronger effect = lower value
Would you kindly list activity for each of these molecules?
Give the number; % is assumed, so skip it.

# activity of "CC(C)[C@@](C)(O)[C@@H]1CN(c2nc(-c3[nH]nc4ncccc34)c(F)cc2Cl)CCN1" = -69

Record summary for "NC(=O)c1cnc(NCCc2ccc(O)c(Cl)c2)nc1NCc1ccccc1" : reported activity = -29

Please fill in: activity reported for "C=C(C(=O)O)[C@@H]1CC[C@@]2(C)CC[C@H](O)[C@@]2(C(C)=O)C1" = -66.3

# activity (molecule: "C=C[C@H]1[C@H](O[C@@H]2O[C@H](CO)[C@@H](O)[C@H](O)[C@H]2O)OC=C(C(=O)OC)[C@H]1C/C=C(/C=O)[C@@H]1C(C(=O)OC)=CO[C@@H](O[C@@H]2O[C@H](CO)[C@@H](O)[C@H](O)[C@H]2O)[C@@H]1C=C" ) is -65.2

###

- Tested on: CAOV3
- ASSAY_TEXT: Primary qHTS to identify gynecologic anti-cancer compounds using libraries of approved drugs and bioactive compounds (AID 1345084); also: % is scaled to controls: 0 for no effect and ±100 for the full control effect; nearly all actives have a fitted effect of over 55% in size
- TEST_CONTEXT: Gynecologic cancer cell panel viability, ATPlite luminescence, 48 h; series mostly up to 57.5 µM
Records with an inconclusive call do not appear. Calls of active or inactive are those of the source. Calls come from the whole dose curve; as a rule, active = well fitted cell-killing curve with a large enough effect; inconclusive = small, poorly fitted or top-dose-only effect, or effect the other way; inactive = flat fitted curve, though single readings scatter.
Field: activity change, negative = cytotoxicity. Provide a value for each of the compounds that follow.

// activity change, negative = cytotoxicity lookup, compound = C[C@@H]1O[C@@H](O[C@H]2[C@H](O)[C@@H](O[C@@H]3O[C@H](CO)[C@@H](O)[C@H](O[C@@H]4O[C@H](CO)[C@@H](O)[C@H](O)[C@H]4O)[C@H]3O)[C@H](O[C@H]3CC[C@@]4(C)C(=CC[C@@H]5C4CC[C@@]4(C)C5C[C@@H]5OC6(CC[C@@](C)(CO[C@@H]7O[C@H](CO)[C@@H](O)[C@H](O)[C@H]7O)O6)[C@@H](C)[C@@H]54)C3)O[C@@H]2CO)[C@H](O)[C@H](O)[C@H]1O (some centres not stated) , result: -0.0617% [at 6.55 µM] (inactive)

Input C=C(C)C1CCC2(C(=O)O[C@@H]3O[C@H](CO[C@@H]4O[C@H](CO)[C@@H](O)[C@H](O)[C@H]4O)[C@@H](O)[C@H](O[C@@H]4O[C@@H](C)[C@H](O)[C@@H](O)[C@H]4O)[C@H]3O)CCC3(C(=O)O)C(CCC4C5(C)CCC(O)C(C)(C)C5CCC43C)C12 (some centres not stated) . Output activity change, negative = cytotoxicity: -3.74% [at 11.6 µM] (inactive)

Lab note: C[C@@H]1O[C@@H](O[C@H]2[C@H](O[C@H]3[C@H](O)[C@@H](C(=O)O)O[C@@H](O[C@H]4CC[C@@]5(C)C(CC[C@]6(C)C5CC[C@]57OC[C@@]8(CCC(C)(C)CC85)[C@H](O)C[C@]76C)C4(C)C)[C@@H]3O[C@@H]3O[C@H](CO)[C@@H](O[C@@H]4OC[C@@H](O)[C@H](O)[C@H]4O)[C@H](O)[C@H]3O)O[C@H](CO)[C@H](O)[C@@H]2O)[C@H](O)[C@H](O)[C@H]1O (some centres not stated) gave activity change, negative = cytotoxicity of 1.86% [at 6.55 µM] (inactive)

GET /value?item= CC(C)=CCC[C@](C)(O[C@@H]1O[C@H](CO[C@@H]2O[C@H](CO)[C@@H](O)[C@H](O)[C@H]2O)[C@@H](O)[C@H](O)[C@H]1O)C1CC[C@]2(C)[C@@H]1[C@H](O)CC1[C@@]3(C)CC[C@H](O[C@@H]4O[C@H](CO)[C@@H](O)[C@H](O)[C@H]4O[C@@H]4O[C@H](CO)[C@@H](O)[C@H](O)[C@H]4O)C(C)(C)[C@@H]3CC[C@]12C (some centres not stated) &field=activity change, negative = cytotoxicity returns 10.1% [at 11.6 µM] (inactive)

Quick note, activity change, negative = cytotoxicity for C[C@@H]1O[C@@H](O[C@H]2[C@H](O[C@H]3[C@H](O[C@H]4CC[C@@]5(C)C(CC[C@]6(C)C5CC=C5[C@@H]7CC(C)(C)C[C@@H](O)[C@]7(C)CC[C@]56C)[C@@]4(C)CO)O[C@H](C(=O)O)[C@@H](O)[C@@H]3O)OC[C@H](O)[C@@H]2O)[C@H](O)[C@H](O)[C@H]1O (some centres not stated) landed at 0% [at 11.6 µM] (inactive)

Just so you know, measured activity change, negative = cytotoxicity for "CC(=O)C1=C(C)N(c2cccc(C(F)(F)F)c2)C(=O)N[C@H]1c1ccc(C#N)nc1" came out at 8.36% [at 11.6 µM] (inactive)

Lab note: measured activity change, negative = cytotoxicity of COC1CC(O[C@H]2CC[C@@]3(C)C(CCC4C3[C@H](OC(C)=O)[C@@H](OC(=O)/C=C/c3ccccc3)[C@]3(C)C(C(C)=O)CC[C@]43O)C2)OC(C)C1OC1CC(OC)C(OC2CC(OC)C(OC3OC(C)C(OC4OC(CO)C(O)C(O)C4O)C(OC)C3O)C(C)O2)C(C)O1 (some centres not stated) was 6.87% [at 6.55 µM] (inactive)

###

Assign activity change, negative = cytotoxicity to each entry below.
- Tested on: HeLa
- ASSAY_TEXT: Primary qHTS to identify gynecologic anti-cancer compounds using libraries of approved drugs and bioactive compounds (AID 1345084); also: % is scaled to controls: 0 for no effect and ±100 for the full control effect; nearly all actives have a fitted effect of over 55% in size
- TEST_CONTEXT: Gynecologic cancer cell panel viability, ATPlite luminescence, 48 h; series mostly up to 57.5 µM
Inconclusive results are not listed. Activity calls are given as the source filed them. The call rests on the fitted dose curve; in most records, active means well fitted cell-killing curve with a large enough effect; inconclusive means small, poorly fitted or top-dose-only effect, or effect the other way; inactive means flat fitted curve, though single readings scatter.

Lab entry: HeLa assay, compound C[C@@H]1O[C@@H](O[C@@H]2[C@@H](O)[C@H](O[C@H]3[C@H](O[C@H]4CC[C@@]5(C)C(CC[C@]6(C)C5CC=C5[C@@H]7CC(C)(C)CC[C@]7(C(=O)O[C@@H]7O[C@H](CO)[C@@H](O)[C@H](O)[C@H]7O[C@@H]7O[C@@H](C)[C@H](O[C@@H]8O[C@@H](C)[C@H](O)[C@@H](O)[C@H]8O)[C@@H](O)[C@H]7O)CC[C@]56C)[C@@]4(C)CO)O[C@H](C(=O)O)[C@@H](O)[C@@H]3O)O[C@H](CO)[C@H]2O)[C@H](O)[C@H](O)[C@H]1O (some centres undefined) , activity change, negative = cytotoxicity = 1.1% [at 6.55 µM] (inactive)

// compound C[C@@H]1CC[C@]2(C(=O)O[C@@H]3O[C@H](CO)[C@@H](O)[C@H](O)[C@H]3O)CC[C@]3(C)C(=CCC4[C@@]5(C)C[C@@H](O)[C@H](O)[C@@](C)(C(=O)O[C@H]6[C@H](O)C[C@@]7(C)C(CC[C@]8(C)C7CC=C7[C@H]9[C@](C(=O)O[C@@H]%10O[C@H](CO)[C@@H](O)[C@H](O)[C@H]%10O)(CC[C@@H](C)[C@@]9(C)O)CC[C@]78C)[C@@]6(CO)C(=O)O)C5CC[C@]43C)[C@@H]2[C@]1(C)O (some centres undefined) , assay HeLa, activity change, negative = cytotoxicity value: -3.59% [at 6.55 µM] (inactive)

The compound CC1OC(OCC2OC(OC3CCC4(C)C(CCC5(C)C4CC=C4C6CC(C)(C)CCC6(C(=O)OC6OC(CO)C(O)C(O)C6O)CCC45C)C3(C)CO)C(O)C(O)C2O)C(O)C(O)C1O (centres undefined) on HeLa: activity change, negative = cytotoxicity was -1.23% [at 11.6 µM] (inactive)

Tested on HeLa: "CC(=O)N[C@@H](CCCCN)C(=O)N(C)[C@@H](CC(C)C)C(=O)N[C@H](C(=O)N(C)[C@@H](Cc1ccccc1)C(=O)N[C@H](Cc1ccccc1)C(N)=O)C(C)C" . Observed activity change, negative = cytotoxicity: 16.5% [at 6.55 µM] (inactive)

###

- ASSAY_TEXT: Primary fluorescence-based thiol-reactive (MSTI) qHTS assay for identification of artifact compounds. (AID 1845221); also: nearly all actives have a fitted effect of over 65% in size
- TEST_CONTEXT: MSTI thiol-reactivity probe, 1 h; series mostly up to 53.8 µM
Results filed as inconclusive are left out. Active and inactive are the calls of the source. Calls follow the shape of the dose curve; as a rule, active = well fitted inhibition curve with a large enough effect; inconclusive = small, poorly fitted or top-dose-only effect; inactive = no such curve, though single readings can be large or run the other way.
Write down one outcome, taken from active, inactive

So what was the verdict on "COc1cc(O)cc(C)c1C(=O)O[C@@H]1[C@H](O)[C@@H](CO)O[C@H]1n1ccc(=O)[nH]c1=O" in this test?
inactive

Short answer needed: outcome of this test for CC1=CC(=O)CC(C)(C)C1/C=C/C(C)O[C@@H]1O[C@H](CO)[C@@H](O)[C@H](O)[C@H]1O[C@@H]1OC[C@](O)(CO)[C@H]1O (some centres undefined) ?
inactive

I would be grateful if you could indicate the recorded call for "CCOc1cc(C)c(Cl)cc1S(=O)(=O)n1cnc2ccccc21" .
inactive

Hello, I am checking results. What call was entered for COC(=O)C1(C)CCC2(C(=O)O)CCC3(C)C(=CCC4C5(C)CC(O)C(OC6OCC(O)C(O)C6O)C(C)(CO)C5CCC43C)C2C1 (centres undefined) ?
inactive

What classification did "C=C1C[C@]23C[C@H]1[C@@H](O)C[C@H]2[C@@]12C=C[C@H](O)[C@@](C)(C(=O)O1)[C@H]2[C@@H]3C(=O)O" end up with in this test?
inactive

What did the test return for "Cc1cc(Nc2cc(N3CCN(C)CC3)nc(/C=C/c3ccccc3)n2)n[nH]1" ?
inactive

// return assay outcome for "COc1cc(Br)c(S(=O)(=O)Nc2ccc(C(F)(F)F)c(O[C@@H]3CCN(C)C3)c2)cc1OC"
inactive

Any idea what this test logged for "CC(C)CCC[C@@H](C)[C@H]1CC[C@H]2[C@@H]3CC(=O)[C@H]4C[C@@H](O)CC[C@]4(C)[C@H]3CC[C@]12C" ?
inactive

Assay outcome for "CC(C)(C)NC(=O)[C@@H](c1cccnc1)N(C(=O)c1ccco1)c1ccc(C(C)(C)C)cc1" : what was it?
inactive

Record request — test call for COc1ccc(CC2NCCc3c2[nH]c2ccc(C)cc32)cc1OC (centres undefined)
inactive

Could you please tell me the result logged for "CCN(CC)Cc1ccc(C(=O)N(CCc2ccccc2OC)[C@@H]2CCNC2)cc1" in this assay?
inactive

Hey, what did the test say about CC(=O)OC1C(c2ccccc2)CCC(c2ccccc2)C1OC(C)=O (centres undefined) ?
inactive

Query: recorded result category for "COC(=O)c1cc(OC)c(O[C@@H]2O[C@@H](C)[C@H](O)[C@@H](O)[C@H]2O)c(OC)c1" in this test
inactive

Hi, do you know how "Cc1[nH]nc(C(F)(F)F)c1Cc1sc2c(c1C(=O)N1C[C@](C)(O)CO1)c(=O)n(C)c(=O)n2C(C)C" came out in this test?
inactive

Answer briefly: the call reported for CC(C)C(N)C(=O)OCCOCn1cnc2c(=O)[nH]c(N)nc21 (centres undefined) in this assay.
inactive

Short answer needed: outcome of this test for Cc1nc(Nc2n[nH]c3c2CN(C(=O)NC(CN(C)C)c2ccccc2)C3(C)C)c2sccc2n1 (centres undefined) ?
inactive

Which outcome did this test record for the compound C[C@H](C/C=C/C(C)(C)O)[C@H]1CC[C@@]2(C)[C@@H]3[C@@H](O[C@@H]4O[C@H](CO)[C@@H](O)[C@H](O)[C@H]4O)C=C4C(CC[C@H](O)C4(C)C)[C@]3(C=O)CC[C@]12C (some centres undefined) ?
inactive

Which outcome was entered for the compound C=C1C(=O)O[C@H]2C1[C@H](OC(=O)/C(=C/CO)COC(=O)/C(C)=C/CO)CC(=C)[C@@H]1CC(=O)[C@@H](C)[C@@H]12 (some centres undefined) in this test?
inactive

Write down the call the test reported for this compound. Item: "O=C(CO)[C@@H](O)[C@H](O[C@@H]1O[C@H](CO)[C@H](O)[C@H](O)[C@H]1O)[C@H](O)CO"
inactive

How was Cc1nc(NC(=O)N2CCCC2C(N)=O)sc1-c1csc(C(C)(C)C)n1 (centres undefined) classified in this test?
inactive

// return assay outcome for CN(C)c1ccc2c(c1)OC(N)=C(C#N)C2c1cccc(C(F)(F)F)c1 (centres undefined)
active

Record request — test call for "OC[C@H]1O[C@@H](Oc2ccccc2)[C@H](O)[C@@H](O)[C@@H]1O"
active

Record lookup: outcome of this test for "CCCCc1ccc(C(=O)Nc2cc(-c3ccc(Cl)cc3)nn2-c2ccc(Cl)cc2)cc1" ?
inactive

Assay outcome for C[C@@H]1C[C@@H]([C@@H](O)C(C)(C)O)O[C@H]2C[C@@]3(C)C(=C12)C[C@H](O)[C@H]1[C@@]2(C)CCC(=O)C(C)(C)C2CC[C@@]13C (some centres undefined) : what was it?
inactive

Hello, I am checking results. What call was entered for "CCCC(=O)O[C@@H]1[C@@H]2[C@@H](OC(C)=O)[C@]3(C)C(=O)[C@H]4[C@@H](OC(C)=O)C(C)(C)C[C@H]4[C@]3(C)C(=O)[C@@]2(OC(C)=O)C[C@@H]1C" ?
inactive

Query: recorded result category for "CC(C)c1cc(C(=O)N2CC[C@@H](NC(=O)C3CC3)C2)n[nH]1" in this test
inactive

Could you kindly confirm the outcome this assay logged for "CC[C@@H](O)C[C@@H]1C(C)=C[C@@H]2CCCC[C@@H]2[C@@]1(C)C(=O)O" ?
inactive

// outcome(item) with item = "CCN1CCN(Cc2ccc(Nc3ncc(F)c(-c4cc(F)c5nc(C)n(C(C)C)c5c4)n3)nc2)CC1"
inactive

Identify the outcome logged in this assay for the compound shown: "C[C@@H]1CCN(C(=O)N2CCCC2)C[C@@H]1N(C)c1ncnc2[nH]ccc12"
inactive

Answer briefly: the call reported for CC(C)=C/C=C\[C@H](C)[C@H]1CC[C@]2(C)C[C@@H]3C(C)=CC(=O)C3/C(CO)=C\C[C@@H]12 (some centres undefined) in this assay.
inactive

Which result was noted for this compound in the test: "COc1cc2c(cc1OC)-c1[nH]nc(Nc3cccc(F)c3)c1C2"
active

Write down the call the test reported for this compound. Item: CC(Nc1ncnc2nc[nH]c12)c1cc2cccc(Cl)c2c(=O)n1-c1ccccc1 (centres undefined)
inactive

Assay outcome for "Oc1ccc2nc(CN3CCC(Cc4ccccc4F)CC3)[nH]c2c1" : what was it?
inactive

Returns: the outcome recorded for C=C(C)C1Cc2cc(C(=O)OC3OC(CO)C(O)C(O)C3O)ccc2O1 (centres undefined) in this assay.
active
